System: PC-3 prostate cancer cell line
Experiment: Cell viability, sulforhodamine B assay
Format: cell-based
Settings: Homo sapiens, 72 h exposure, dilutions 12.5 to 100 μM, read-out: Cytotoxicity IC50, PC-3
Description: The cytotoxicity of compounds 1–12 was evaluated in vitro against different cancer cell lines: MCF-7 breast cancer, DU-145 and PC-3 human prostate cancer, and one non-tumor cell line, human colon epithelial cells CCD 841 CoN (CoN). […] Four serial dilutions (from 12.5 to 100 μM) for each sample were evaluated in triplicate. The experimental cell cultures were obtained from the American Type Culture Collection (Rockville, MD, USA). […]
OBSERVABLE: IC50 (µM)
Note: unit µM is implicit; provide only the numeric part.

* CC1(C)CCC[C@]2(C)C3=C(CC[C@@H]12)COC3=O | 87.6

Okay, now this compound:
May I ask what IC50 has been recorded for CC1(C)CCCC2(C)C1CC(=O)C1(C)OC12 (stereo not drawn) ?
90.2
